The values you see were collected from paper PMC7844219.

system-name: hNGAL (Homo sapiens, UniProt P80188)
Construct: purchased R&D Systems
Sequence (P80188 21-198): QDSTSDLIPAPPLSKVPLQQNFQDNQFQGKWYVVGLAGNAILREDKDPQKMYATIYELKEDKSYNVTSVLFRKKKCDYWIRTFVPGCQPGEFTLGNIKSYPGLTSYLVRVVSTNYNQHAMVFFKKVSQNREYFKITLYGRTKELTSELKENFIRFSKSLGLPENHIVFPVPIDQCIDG
procedure-details: hNGAL-induced IL6 and Col I secretion in human cardiac fibroblasts (ELISA)
Type: cell-based
Set-up: concentration or dose not given beside the values
setup-conditions: Table S4, second generation compounds and parents; human cardiac fibroblasts
measurement-label: % inhibition versus hNGAL on IL-6 secretion (%)
Report only the number, with the unit % understood.

smiles-record	system-name	readout-units	reading
CC(=O)c1cccc(S(=O)(=O)NCc2ccccc2-n2cccn2)c1	hNGAL (Homo sapiens, UniProt P80188)	%	59.5
CC(=O)c1cccc(S(=O)(=O)NCc2ccccc2-c2ccsc2)c1	hNGAL (Homo sapiens, UniProt P80188)	%	35.9

API: the following record is the query input.
Request: Supply recorded % inhibition versus hNGAL on IL-6 secretion for O=C(Nc1nc2cc(F)c(F)cc2s1)c1cn2cccnc2n1 here.
Result: 40.1
